Overview of recorded Plasma Concentration in vivo after transfusion of one unit, Concept 2, assume 85% Removal for various compounds
assay: Plasma concentration in vivo after transfusion of one unit of 2,3-DPG enhanced cells; conditions: Total Plasma Volume = 2.28 Liters; assume 85% removal
Use µM as the unit, but write only the number.

In: Look up and state reported Plasma Concentration in vivo after transfusion of one unit, Concept 2, assume 85% Removal for O=c1[nH]c(=O)c2[nH]c(=O)[nH]c2[nH]1
Out: 330

* * *

Overview of recorded Plasma Concentration in vivo after transfusion of one unit, Concept 1, assumes 75% Removal for various compounds
experiment: Plasma concentration in vivo after transfusion of one unit of 2,3-DPG enhanced cells; details: Total Plasma Volume = 2.28 Liters; assumes 75% removal
Use µM as the unit, but write only the number.

For orientation, consider the following solved cases.
In: Look up and state reported Plasma Concentration in vivo after transfusion of one unit, Concept 1, assumes 75% Removal for O=c1[nH]c(=O)c2[nH]c(=O)[nH]c2[nH]1 [Uric Acid]
Out: 550

In: Look up and state reported Plasma Concentration in vivo after transfusion of one unit, Concept 1, assumes 75% Removal for Nc1ncnc2nc[nH]c12 [Adenine]
Out: 27

In: Look up and state reported Plasma Concentration in vivo after transfusion of one unit, Concept 1, assumes 75% Removal for OC[C@H]1O[C@@H](n2cnc3c(O)ncnc32)[C@H](O)[C@@H]1O [Inosine]
Out: 550

In: Look up and state reported Plasma Concentration in vivo after transfusion of one unit, Concept 1, assumes 75% Removal for CC(O)C(=O)O (stereo not drawn) [Lactate]
Out: 550

In: Look up and state reported Plasma Concentration in vivo after transfusion of one unit, Concept 1, assumes 75% Removal for O=c1[nH]cnc2nc[nH]c12 [Hypoxanthine]
Out: 550

Now turn to the next compound.
In: Look up and state reported Plasma Concentration in vivo after transfusion of one unit, Concept 1, assumes 75% Removal for CC(=O)C(=O)O [Pyruvate]
Out: 550

* * *

test: Plasma concentration in vivo after transfusion of one unit of 2,3-DPG enhanced cells; conditions: Total Plasma Volume = 2.28 Liters; assume 85% removal
measure-name: Plasma Concentration in vivo after transfusion of one unit, Concept 2, assume 85% Removal

For orientation, consider the following solved cases.
In: Look up and state reported Plasma Concentration in vivo after transfusion of one unit, Concept 2, assume 85% Removal for CC(=O)C(=O)O [Pyruvate]
Out: 330 µM

In: Look up and state reported Plasma Concentration in vivo after transfusion of one unit, Concept 2, assume 85% Removal for OC[C@H]1O[C@@H](n2cnc3c(O)ncnc32)[C@H](O)[C@@H]1O
Out: 330 µM

In: Look up and state reported Plasma Concentration in vivo after transfusion of one unit, Concept 2, assume 85% Removal for Nc1ncnc2nc[nH]c12
Out: 16 µM

In: Look up and state reported Plasma Concentration in vivo after transfusion of one unit, Concept 2, assume 85% Removal for CC(O)C(=O)O (centres unmarked) [Lactate]
Out: 330 µM

Now turn to the next molecule.
In: Look up and state reported Plasma Concentration in vivo after transfusion of one unit, Concept 2, assume 85% Removal for O=c1[nH]cnc2nc[nH]c12
Out: 330 µM
